Parameter pIC50: see the listing below.
Biological target: BCL-2/BAK (Homo sapiens)
Sequence (P10415 whole entry, species assumed): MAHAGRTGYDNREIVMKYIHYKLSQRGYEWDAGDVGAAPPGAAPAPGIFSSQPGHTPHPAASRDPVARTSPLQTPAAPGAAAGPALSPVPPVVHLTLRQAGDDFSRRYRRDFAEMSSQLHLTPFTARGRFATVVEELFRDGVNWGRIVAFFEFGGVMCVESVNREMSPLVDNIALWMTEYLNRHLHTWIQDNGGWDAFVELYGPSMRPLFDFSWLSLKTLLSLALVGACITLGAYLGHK
Experiment: Screening on inhibitory activity for BCL-2/BAK binding (Cisbio HTRF kit)
// returns pIC50 (minus log10 of molar concentration), number only

Here are 5 molecules together with their reported answers.
CC(=O)N1CCOC(CNc2ccc(S(=O)(=O)NC(=O)c3ccc(N4CCN(CC5=C(c6ccc(C(F)(F)F)cc6Cl)CC(C)(C)CC5)CC4)cc3Oc3cnc4[nH]ccc4c3)cc2[N+](=O)[O-])C1 (stereo not shown) :: 8.74
CC1(C)CCC(CN2CCN(c3ccc(C(=O)NS(=O)(=O)c4ccc(NC[C@H]5CCCO5)c([N+](=O)[O-])c4)c(Oc4cnc5[nH]ccc5c4)c3)CC2)=C(c2ccc(C(F)(F)F)cc2Cl)C1 :: 8.55
COCC(=O)N1CCC(CNc2ccc(S(=O)(=O)NC(=O)c3ccc(N4CCN(CC5=C(c6ccc(C(F)(F)F)cc6Cl)CC(C)(C)CC5)CC4)cc3Oc3cnc4[nH]ccc4c3)cc2[N+](=O)[O-])CC1 :: 8.80
CC1(C)CCC(CN2CCN(c3ccc(C(=O)NS(=O)(=O)c4ccc(NCC5CN(C=O)CCO5)c([N+](=O)[O-])c4)c(Oc4cnc5[nH]ccc5c4)c3)CC2)=C(c2ccc(C(F)(F)F)cc2Cl)C1 (stereo not shown) :: 8.85
CC1(C)CCC(CN2CCN(c3ccc(C(=O)NS(=O)(=O)c4ccc(NCC5CN(S(C)(=O)=O)CCO5)c([N+](=O)[O-])c4)c(Oc4cnc5[nH]ccc5c4)c3)CC2)=C(c2ccc(C(F)(F)F)cc2Cl)C1 (stereo not shown) :: 8.85

Next item in the queue.
Recorded result, CC1(C)CCC(CN2CCN(c3ccc(C(=O)NS(=O)(=O)c4ccc(NC[C@@H]5COCCO5)c([N+](=O)[O-])c4)c(Oc4cnc5[nH]ccc5c4)c3)CC2)=C(c2ccc(C(F)(F)F)cc2Cl)C1 , pIC50: 8.46

Values from patent US20250257064A1
